biological target: human Fc (human); experiment: ELISA, negative control

{"binder": "366_F10 (antibody, V domains shown) VH: EVQLLESGGGLVQPGGSLRLSCAASGFTFDSYSMNWVRQAPGKGLEWVAGINYNGGYTGYADSVKGRFTISRDNSKNTLYLQMNSLRAEDTAVYYCARAANWHDTHLDYWGQGTLVTVSS VL: DIQMTQSPSSLSASVGDRVTITCRASQSIVSYLNWYQQKPGKAPKLVIYAATSRASGVPSRFSGSGSGTDFTLTISSLQPEDFATYYCQQSYDTPLTFGGGTKVEIK", "optical density / OD": 0.28}
{"binder": "366_D01 (antibody, V domains shown) VH: EVQLLESGGGLVQPGGSLRLSCAASGFTFSSYGMHWVRQAPGKGLEWVSSINYNGGYTGYADSVKGRFTISRDNSKNTLYLQMNSLRAEDTAVYYCARAANWHDTHLDYWGQGTLVTVSS VL: DIQMTQSPSSLSASVGDRVTITCRASQSILTYVNWYQQKPGKAPKLLIYAATSRASGVPSRFSGSGSGTDFTLTISSLQPEDFATYYCQQSYENPLTFGGGTKVEIK", "optical density / OD": 0.374}
{"binder": "368_A06 (antibody, V domains shown) VH: EVQLLESGGGLVQPGGSLRLSCAASGFTFDSYSMHWVRQAPGKGLEWVAGINYNSGYKGYADSVKGRFTISRDNSKNTLYLQMNSLRAEDTAVYYCARAANWHDTHLDYWGQGTLVTVSS VL: DIQMTQSPSSLSASVGDRVTITCRASQSILSYVNWYQQKPGKAPKLLIYAATSRHSGVPSRFSGSGSGTDFTLTISSLQPEDFATYYCQQSYNSPLTFGGGTKVEIK", "optical density / OD": 0.483}
{"binder": "373_A01 (antibody, V domains shown) VH: EVQLLESGGGLVQPGGSLRLSCAASGFTFSSYGMNWVRQAPGKGLEWVSNINYNGGYTGYADSVKGRFTISRDNSKNTLYLQMNSLRAEDTAVYYCARGANWHDTHLDYWGQGTLVTVSS VL: DIQMTQSPSSLSASVGDRVTITCRASQSIVTYLNWYQQKPGKAPKLVIYATTSRASGVPSRFSGSGSGTDFTLTISSLQPEDFATYYCQQSYNLPLTFGGGTKVEIK", "optical density / OD": 0.177}
{"binder": "368_A04 (antibody, V domains shown) VH: EVQLLESGGGLVQPGGSLRLSCAASGFTFDDYSMNWVRQAPGKGLEWVAGINYNGGYKSYADSVKGRFTISRDNSKNTLYLQMNSLRAEDTAVYYCARGANWHDTHLDYWGQGTLVTVSS VL: DIQMTQSPSSLSASVGDRVTITCRASQSILTYLNWYQQKPGKAPKLVIYAVTSRASGVPSRFSGSGSGTDFTLTISSLQPEDFATYYCQQSYELPLTFGGGTKVEIK", "optical density / OD": 0.283}
